Tested on: PIK3C2B
Conditions: concentration: 1 μM, replicates: in singlicate; n = 1
parameter.measured: %Inh
The answer consists of two parts: a number and, after it, its unit.

Completed entries (count: 3):
>  <compound>
Cn1cc(-c2[nH]c3cc(NC(=O)[C@H](N)C4CCCCC4)cc4c3c2C=NNC4=O)cn1

>  <target.under.test>
PIK3C2B

>  <%Inh>
49%

$$$$
>  <compound>
CC(C)(C)c1ccc2nccc(Nc3cccc(O)c3)c2c1

>  <target.under.test>
PIK3C2B

>  <%Inh>
38%

$$$$
>  <compound>
CN(C)S(=O)(=O)c1cc(-c2ccc3nccc(-c4cccc(S(N)(=O)=O)c4)c3c2)cnc1N

>  <target.under.test>
PIK3C2B;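 further: KINOMEscan kinase panel screen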

>  <%Inh>
95.5%

$$$$

Let us move to another entry and its %Inh.
Sample NCCCC(NC(=O)c1cc(Br)c(-c2ccnc3[nH]ccc23)s1)c1ccccc1.O=C(O)C(F)(F)F.O=C(O)C(F)(F)F (stereo not shown) — what was its %Inh? 0%
